Molecular target: full-length NS3/NS4A-2 (HCV NS3 protease) (Hepatitis C virus genotype 1a, UniProt P27958)
Construct: Recombinant E. coli or Baculovirus full-length NS3 was diluted to 3.33 μM with assay buffer; made in house; host or cells: E. coli or baculovirus (BV) expression system
Sequence (P27958 1027-1657): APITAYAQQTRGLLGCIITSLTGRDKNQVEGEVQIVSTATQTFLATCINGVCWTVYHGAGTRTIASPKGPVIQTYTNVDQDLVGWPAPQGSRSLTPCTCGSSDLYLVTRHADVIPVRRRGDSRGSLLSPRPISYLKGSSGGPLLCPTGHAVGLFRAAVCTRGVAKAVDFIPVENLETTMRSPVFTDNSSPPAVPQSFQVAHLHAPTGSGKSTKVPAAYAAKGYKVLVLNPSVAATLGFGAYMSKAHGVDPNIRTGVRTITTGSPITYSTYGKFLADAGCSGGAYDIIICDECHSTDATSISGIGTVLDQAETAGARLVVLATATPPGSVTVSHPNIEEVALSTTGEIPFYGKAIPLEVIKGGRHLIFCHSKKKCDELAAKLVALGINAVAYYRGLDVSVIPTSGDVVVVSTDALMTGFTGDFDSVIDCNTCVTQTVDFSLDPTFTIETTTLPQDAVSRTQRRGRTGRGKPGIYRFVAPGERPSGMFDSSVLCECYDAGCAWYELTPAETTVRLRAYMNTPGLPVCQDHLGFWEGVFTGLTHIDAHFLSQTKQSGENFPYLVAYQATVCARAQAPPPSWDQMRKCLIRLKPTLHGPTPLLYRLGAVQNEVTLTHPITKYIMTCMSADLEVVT
Assay: NS3-NS4 protease assay / NS3 inhibition assay (RETS1 substrate, fluorescence kinetic read)
Format: biochemical
Details: recombinant E. coli or Baculovirus full-length NS3 with NS4A-2; read-out: NS3-NS4 IC50
Procedure: NS3 complex formation with NS4A-2. Recombinant E. coli or Baculovirus full-length NS3 was diluted to 3.33 μM with assay buffer and transferred material to an eppendorf tube and place in water bath in 4° C. refrigerator. The appropriate amount of NS4A-2 to 8.3 mM in assay buffer was added to equal the volume of NS3 in step 2.1.1 (conversion factor—3.8 mg/272 μL assay buffer). […] Read the plate in kinetic mode on the Molecular Devices SpectraMax Gemini XS plate reader. […]

COMPOUND | IC50
CC(C)(C)OC(=O)N[C@H]1CCCCC/C=C\[C@@H]2C[C@@]2(C(=O)NS(=O)(=O)NC2(C#N)CC2)NC(=O)[C@@H]2CCCN2C1=O [Compound 2212] | < 1000 nM
O=C(N[C@H]1CCCCC/C=C\[C@@H]2C[C@@]2(C(=O)NS(=O)(=O)C2CC2)NC(=O)[C@H]2Cc3cc(Oc4cccc(Cl)c4)ccc3CN2C1=O)OC1CCCC1 [Compound 2005] | < 100 nM
O=C(N[C@H]1CCCCC/C=C\[C@@H]2C[C@@]2(C(=O)NS(=O)(=O)N2CCC(F)(F)C2)NC(=O)C2C[C@@H](OC(=O)N3Cc4ccccc4C3)CN2C1=O)OC1CCCC1 (some centres unmarked) [Compound 227] | < 100 nM
CCOC1(S(=O)(=O)NC(=O)[C@@]23C[C@H]2/C=C\CCCCC[C@H](NC(=O)OC(C)(C)C)C(=O)N2C[C@H](OC(=O)N4Cc5cccc(Cl)c5C4)C[C@H]2C(=O)N3)CC1 [Compound 165] | < 100 nM
[2H]C([2H])([2H])N(C([2H])([2H])[2H])S(=O)(=O)NC(=O)[C@@]12C[C@H]1/C=C\CCCCC[C@H](NC(=O)OC(C)(C)C)C(=O)N1C[C@H](OC(=O)N3Cc4ccccc4C3)C[C@H]1C(=O)N2 [Compound 204] | < 100 nM
CCCC1(S(=O)(=O)NC(=O)[C@@]23C[C@H]2/C=C\CCCCC[C@H](NC(=O)OC(C)(C)C)C(=O)N2CCC[C@H]2C(=O)N3)CC1 [Compound 304] | < 10000 nM
CC(C)(C)OC(=O)N[C@H]1CCCCC/C=C\[C@@H]2C[C@@]2(C(=O)NS(=O)(=O)N2CCOCC2)NC(=O)[C@@H]2CCCN2C1=O [Compound 2204] | < 1000 nM
C[C@H](NC(=O)O[C@@H]1C[C@H]2C(=O)N[C@]3(C(=O)O)C[C@H]3/C=C\CCCCC[C@H](NC(=O)OC(C)(C)C)C(=O)N2C1)c1ccc(F)cn1 [Compound 147] | > 10000 nM
CC(C)(C)OC(=O)N[C@H]1CCCCC/C=C\[C@@H]2C[C@@]2(C(=O)NCCN2CCCCC2)NC(=O)[C@@H]2C[C@@H](OC(=O)N3Cc4cccc(F)c4C3)CN2C1=O [Compound 604] | > 10000 nM
Cc1cc(CN[C@H]2CCCCC/C=C\[C@@H]3C[C@@]3(C(=O)NS(=O)(=O)C3CC3)NC(=O)[C@@H]3C[C@@H](OC(=O)N4Cc5cccc(F)c5C4)CN3C2=O)oc1C [Compound 915] | < 100 nM
O=C1N[C@]2(C(=O)NS(=O)(=O)C3CC3)C[C@H]2/C=C\CCCCC[C@H](NCc2cc(F)cc(F)c2)C(=O)N2C[C@H](OC(=O)N3Cc4cccc(F)c4C3)C[C@@H]12 [Compound 903] | < 100 nM
O=C(N[C@H]1CCCCC/C=C\[C@@H]2C[C@@]2(C(=O)NS(=O)(=O)c2ccccc2)NC(=O)C2Cc3cc(Oc4cccc(Cl)c4)ccc3CN2C1=O)OC1CCCC1 (some centres unmarked) [Compound 2004] | < 1000 nM
NC(=S)N[C@H]1CCCCC/C=C\[C@@H]2C[C@@]2(C(=O)NS(=O)(=O)C2CC2)NC(=O)[C@@H]2C[C@@H](OC(=O)N3Cc4cccc(F)c4C3)CN2C1=O [Compound 923] | < 100 nM
CC(C)COC(=O)N[C@H]1CCCCC/C=C\[C@@H]2C[C@@]2(C(=O)NS(=O)(=O)Nc2ccc(Cl)cc2)NC(=O)[C@@H]2CCCN2C1=O [Compound 419] | < 10000 nM
C=CCC1(S(=O)(=O)NC(=O)[C@@]23C[C@H]2/C=C\CCCCC[C@H](NC(=O)OC(C)(C)C)C(=O)N2C[C@H](OC(=O)N4Cc5ccccc5C4)C[C@H]2C(=O)N3)CC1 [Compound 105] | < 100 nM
CC(C)(C)OC(=O)N[C@H]1CCCCC/C=C\[C@@H]2C[C@@]2(C(=O)O)NC(=O)[C@@H]2C[C@@H](OC(=O)N3Cc4cccc(Cl)c4C3)CN2C1=O [Compound 113] | < 100 nM
O=C(CCC(F)(F)F)N[C@H]1CCCCC/C=C\[C@@H]2C[C@@]2(C(=O)NS(=O)(=O)C2CC2)NC(=O)[C@@H]2C[C@@H](OC(=O)N3Cc4cccc(Cl)c4C3)CN2C1=O [Compound 143] | < 100 nM
O=C(CCC(F)(F)F)N[C@H]1CCCCC/C=C\[C@@H]2C[C@@]2(C(=O)O)NC(=O)[C@@H]2C[C@@H](OC(=O)N3Cc4cccc(F)c4C3)CN2C1=O [Compound 135] | < 100 nM
CCCC1(S(=O)(=O)NC(=O)[C@@]23C[C@H]2/C=C\CCCCC[C@H](NC(=O)OC(C)(C)C)C(=O)N2C[C@H](OC(=O)N4Cc5ccccc5C4)C[C@H]2C(=O)N3)CC1 [Compound 104] | < 100 nM
CN(C)S(=O)(=O)NC(=O)[C@@]12C[C@H]1/C=C\CCCCC[C@H](N)C(=O)N1C[C@H](OC(=O)N3Cc4ccccc4C3)C[C@H]1C(=O)N2 [Compound 202] | < 100 nM

Recorded values, source patent US7829665B2.
